- System: KM12 colon
- Assay Notes: NCI tumour cell line growth inhibition, 48 h; in the data active = GI50 below about 0.43 µM; inactive = the rest
*1 amine or outer side, *2 acyl side, *3 side chain or, on linkers, in order; H or OH if unused. Where a SMILES comes first, the peptide text is derived from it. Bridges are numbered along the chain shown (N, C = ends). [ ]: non-standard residue; d: D form. The star is where a group is joined. Phe(3-Me) = Cc1cccc(C[C@H](N)C(=O)O)c1; NH(4-Cl-2-F-phenyl) = Fc1cc(Cl)ccc1N*; Pro(4R-Me) = C[C@H]1CN[C@H](C(=O)O)C1; Propanoyl(3-NMe2) = CN(C)CCC(=O)*; Hyp = O=C(O)[C@@H]1C[C@@H](O)CN1; aThr = C[C@H](O)[C@H](N)C(=O)O; Pip = O=C(O)[C@@H]1CCCCN1; CO = O=C([*:1])[*:2]
Outcomes: T = active, F = inactive

Molecule: CC/C=C\C/C=C\C[C@H]1C/C=C2/C(=O)C=C[C@H]2C/C=C\CCC(=O)O1
Cat: F
--
Molecule: O=C([O-])c1ccccc1Nc1ccccc1[O-].[Ni+3].[OH3+].[OH3+].[OH3+]
Cat: F
--
Molecule: Cc1cccc(C[C@H](NC(=O)Nc2ccc(Cl)cc2F)C(=O)N[C@@H]2C(=O)N3C[C@H](OC(=O)CCN(C)C)C[C@H]3C(=O)N3CCCC[C@H]3C(=O)N[C@@H](C)C(=O)N3C[C@H](C)C[C@H]3C(=O)O[C@H]2C)c1 ({NH(4-Cl-2-F-phenyl)-CO}-[Phe(3-Me)][aThr][Hyp](Propanoyl(3-NMe2))[Pip]A[Pro(4R-Me)]; ester 2-C)
Cat: F
--
Molecule: C/C(=N\NC(=O)c1ccncc1)c1ccc(O)cc1O
Cat: F
--
Molecule: CC(C)Oc1ccc(C(=O)N[C@H](CNC(=O)CN(C)C)Cc2ccc(-c3cn4cccc([C@H](C)O)c4n3)cc2)cc1Cl
Cat: T
--
Molecule: O=C(CCl)Nc1ccc2c(c1)C(=O)c1ccc(NC(=O)CCl)cc1C2=O
Cat: F
--
Molecule: COc1ccc(/C=C/C(=O)c2ccc(Nc3ccnc4cc(Cl)ccc34)cc2)cc1
Cat: F
--
Molecule: COC(=O)c1ccc(C2SCC(=O)N2NC(=O)C(O)c2ccccc2)cc1 (stereo not given)
Cat: F
--
Molecule: O=C1c2cccnc2C(=O)c2c1c(C(=O)OCCN1CCOCC1)c1ccccn21
Cat: T
--
Molecule: N=c1ccn2c(n1)O[C@@H]1[C@@H](O)[C@H](CO)O[C@@H]12
Cat: F
--
Molecule: O=C(Nc1ccc(Br)cc1F)c1cc(Br)ccc1O
Cat: F
--
Molecule: NC(N)=Nc1nc2ccccc2[nH]1
Cat: F
--
Molecule: COc1cc2c3c(n(CCCCl)c(=O)c2cc1OC)-c1ccc(C#N)cc1C3=O
Cat: F
--
Molecule: COc1cc(C2C(C#N)=C(N)Oc3cc(O)ccc32)cc(OC)c1OC (stereo not given)
Cat: F
--
Molecule: CC(=O)Nc1sc2c(c1-c1nc3ccccc3s1)CNC2
Cat: F

----------
- Test system: A498 renal
- Assay Notes: NCI tumour cell line growth inhibition, 48 h
Listed here: items and their measured TGI.

Compound: COc1ccc(/C=C/C(=O)c2ccc(Nc3ccnc4cc(Cl)ccc34)cc2)cc1
TGI: > 100 µM
//
Compound: CCCN1CCN(c2ccc3nc(-c4ccc5nc(-c6ccc(OCC)c(OCC)c6)[nH]c5c4)[nH]c3c2)CC1
TGI: 1.82 µM
//
Compound: COc1ccc(CC2C3=C(CCCC3)CCN2C)cc1 (stereo not given)
TGI: > 100 µM
//
Compound: Cc1n[nH]c(=O)n1N1C(=O)c2ccccc2C1=O
TGI: > 100 µM
//
Compound: O=C(/C=C/c1cccnc1)c1ccccc1O
TGI: 31.4 µM
//
Compound: O=C(O)c1cc(Sc2ccc([N+](=O)[O-])c(C(=O)O)c2)ccc1[N+](=O)[O-]
TGI: > 100 µM
//
Compound: C[C@@H]1OC(=O)/C(=C\N(C)C)[C@H]2CC(=O)N(CCc3cn(S(=O)(=O)C(F)(F)F)c4ccccc34)C[C@H]12
TGI: > 100 µM
//
Compound: CN(C)/C(N)=N/C(N)=S
TGI: > 100 µM
//
Compound: CN(C)/C=N/c1nc2ncn(CCOC(=O)c3ccccc3)c2c(=O)[nH]1
TGI: > 100 µM
//
Compound: C[C@]12CCC(=O)C=C1CC[C@@H]1C2CC[C@]2(C)Nc3c(ncn3-c3ccc(F)cc3)CC12 (stereo not given in full)
TGI: > 100 µM

----------
- System: 786-0 renal
- Assay Notes: NCI tumour cell line growth inhibition, 48 h
Readout Type: TGI

Molecule: O=C(O)/C=C\C(=O)Nc1ccc2c(c1)C(=O)c1cc(F)ccc1-2
Assayed Target: 786-0 renal
Value Observed: > 100 µM
--
Molecule: CCCCCCCCCC(CCCC(O)CC(=O)O)OC1OC(COC2OC(C)C(O)C(O)C2O)C(O)C(O)C1OC1OC(CO)C(O)C(O)C1OC1OC(C)C(O)C(O)C1O (configuration not stated)
Assayed Target: 786-0 renal
Value Observed: > 40 µM
--
Molecule: CCOP(=O)(OCC)/C(C#N)=C/c1c(C)[nH]c2ccccc12
Assayed Target: 786-0 renal
Value Observed: > 100 µM
--
Molecule: O=c1/c(=C/c2ccc3c(c2)OCO3)sc2nnc(-c3ccco3)n12
Assayed Target: 786-0 renal
Value Observed: > 100 µM
--
Molecule: Nc1nc2c(c3cnccc13)C(c1cccc(Cl)c1)Cc1cnccc1-2 (configuration not stated)
Assayed Target: 786-0 renal
Value Observed: 10.6 µM
--
Molecule: COc1ccc(CC2C3=C(CCCC3)CCN2C)cc1 (configuration not stated)
Assayed Target: 786-0 renal
Value Observed: > 100 µM
--
Molecule: CCc1ccc(Nc2cc(C)nc3nc(C)nn23)cc1
Assayed Target: 786-0 renal
Value Observed: > 100 µM

----------
Listed here: items and their measured TGI.
- System: A498 renal
- Assay Notes: NCI tumour cell line growth inhibition, 48 h

Compound: CC[C@]12CCCN3CC[C@]4(C(=C(C(=O)OC)C1)Nc1ccccc14)[C@@H]32
Qual: =
TGI (µM): 32.4
//
Compound: COc1ccc(C#CCC(OC2OC(CO)C(O)C(O)C2O)C(O)c2ccc(OC)c(OC)c2)cc1OC (configuration not stated)
Qual: >
TGI (µM): 100
//
Compound: C=C1N(C)c2ccc(Cl)cc2C1(C)C
Qual: =
TGI (µM): 43.6
//
Compound: COc1cc2c3c(n(CCCCl)c(=O)c2cc1OC)-c1ccc(C#N)cc1C3=O
Qual: =
TGI (µM): 58.8
//
Compound: CC1=C2C(O)C(C(C)C(=O)NC(C)C)CCC2(C)C=CC1=O (configuration not stated)
Qual: >
TGI (µM): 100
//
Compound: CCOP(=O)(OCC)/C(C#N)=C/c1c(C)[nH]c2ccccc12
Qual: >
TGI (µM): 100
//
Compound: ClC[Si]12OCCN(CCO1)CCO2
Qual: >
TGI (µM): 100

----------
- System: MDA-MB-231 breast
- Assay Notes: NCI tumour cell line growth inhibition, 48 h
Listed here: items and their measured GI50.
Readout Type: GI50

Compound: COc1ccc(CNc2nc(NCc3ccc(OC)cc3)c3n[nH]c(C(C)C)c3n2)cc1
Assayed Target: MDA-MB-231 breast
Readout Type: GI50
Value Observed: 4.67 µM
//
Compound: Nc1nc2c(c3cnccc13)C(c1cccc(Cl)c1)Cc1cnccc1-2 (stereo not drawn)
Assayed Target: MDA-MB-231 breast
Readout Type: GI50
Value Observed: 0.763 µM
//
Compound: O=c1cccc(C#CC#C/C=C/CO)o1
Assayed Target: MDA-MB-231 breast
Readout Type: GI50
Value Observed: 1.87 µM
//
Compound: COC(=O)c1ccc(C2SCC(=O)N2NC(=O)C(O)c2ccccc2)cc1 (stereo not drawn)
Assayed Target: MDA-MB-231 breast
Readout Type: GI50
Value Observed: > 100 µM
//
Compound: CCc1ccc(Nc2cc(C)nc3nc(C)nn23)cc1
Assayed Target: MDA-MB-231 breast
Readout Type: GI50
Value Observed: 31.4 µM
//
Compound: COc1cc(C2C(C#N)=C(N)Oc3cc(O)ccc32)cc(OC)c1OC (stereo not drawn)
Assayed Target: MDA-MB-231 breast
Readout Type: GI50
Value Observed: 1.85 µM
//
Compound: CC([O-])C(=O)[O-].NCC1CCC1CN.[Pt+4] (stereo not drawn)
Assayed Target: MDA-MB-231 breast
Readout Type: GI50
Value Observed: > 10 µM
//
Compound: COc1cc(OC)cc(-c2cncn2-c2ccc(-c3nc4cc(OC)c(OC)c(OC)c4s3)cc2)c1
Assayed Target: MDA-MB-231 breast
Readout Type: GI50
Value Observed: 19.2 µM
